Test system: HEK293 cells
Assay: Preliminary screening as mRNA vectors, EGFP mRNA transfection of HEK293 cells
Assay type: cell-based
Settings: HEK293 cells, 96-well plates, EGFP mRNA 50 ng per well; percentage of GFP fluorescent cells relative to total number of cells (Hoechst)
Description: Cell line: HEK293 cells (ATCC CRL-1573™) Medium: DMEM supplemented with 10% fetal bovine serum (Invitrogen) Screening: cell transfection on 96-well plates Detection (readout): percentage of the number of GFP fluorescent cells relative to the total number of cells (the total number of cells was determined using nucleus dye Hoechst). Lipofectamine2000 (Invitrogen) was used as the positive control. […]
Listing of entries alongside the reported Absolute mRNA transfection efficiency in HEK293 cells.
Numeric only. Scale: %

Given item CCCCCCCCCCCCCNc1nc(NCCCCCC)nc(NCCN2CCOCC2)n1 , the value recorded as its Absolute mRNA transfection efficiency in HEK293 cells is 0.0

Given item CCCCCCCCCCCCCCSc1nc(NCCN2CCN(C)CC2)nc(SCCCCCCCC)n1 , the value recorded as its Absolute mRNA transfection efficiency in HEK293 cells is 52.7

Given item CCCCCCCCCCCCCCCCNc1nc(NCCCCCCCCCCCCCCCC)nc(NCC2CCN(C)CC2)n1 , the value recorded as its Absolute mRNA transfection efficiency in HEK293 cells is 0.0

Given item CCCCCCCCCCCNc1nc(NCCCCCCCC)nc(NCCN2CCCCC2)n1 , the value recorded as its Absolute mRNA transfection efficiency in HEK293 cells is 0.2

Given item CCCCCCCCCCSc1nc(NCC2CCN(C)CC2)nc(SCCCCCCCCC)n1 , the value recorded as its Absolute mRNA transfection efficiency in HEK293 cells is 47.2

Given item CCCCCCCNc1nc(NCCCCCC)nc(NCCCN2CCN(C)CC2)n1 , the value recorded as its Absolute mRNA transfection efficiency in HEK293 cells is 0.0

Given item CCCCCCCCCCCCCCCCCCNc1nc(NCCCCCCCCCCCCCCCC)nc(NCCN2CCCCC2)n1 , the value recorded as its Absolute mRNA transfection efficiency in HEK293 cells is 1.8

Given item CCCCCCCCCCCCCCCCSc1nc(NCCN2CCN(C)CC2)nc(SCCCCCCCCCCC)n1 , the value recorded as its Absolute mRNA transfection efficiency in HEK293 cells is 5.1

---

Experiment: Particle size and PDI of lipid nanoparticles (Nano-ZSZEN3600, Malvern)
Type: physicochemical
Settings: LNPs, Formulation method 2
experimentalEndpoint: PDI
Response field accepts a number only; no unit should be typed.

| smilesText | experimentalEndpoint | numericReadout |
| --- | --- | --- |
| CCCCCCCCCCCCCCCCSc1nc(NCCN2CCN(C)CC2)nc(SCCCCCCCCC)n1 | PDI | 0.05 |

Given item CCCCCCCC/C=C\CCCCCCCCSc1nc(OCC2CCN(C)CC2)nc(SCCCCCCCCC)n1 , the value recorded as its PDI is 0.05

Given item CCCCCCCCCCCCCCCCSc1nc(NCCCCCCCC)nc(NCC2CCN(C)CC2)n1 , the value recorded as its PDI is 0.03

Given item CCCCCCCC/C=C\CCCCCCCCSc1nc(OCCN2CCCC2)nc(SCCCCCCCCC)n1 , the value recorded as its PDI is 0.03

---

Tested on: HEK293 cells
Experiment: Preliminary screening as mRNA vectors, EGFP mRNA transfection of HEK293 cells
Assay type: cell-based
Details: HEK293 cells, 96-well plates, EGFP mRNA 50 ng per well; percentage of GFP fluorescent cells relative to total number of cells (Hoechst)
Experimental: Cell line: HEK293 cells (ATCC CRL-1573™) Medium: DMEM supplemented with 10% fetal bovine serum (Invitrogen) Screening: cell transfection on 96-well plates Detection (readout): percentage of the number of GFP fluorescent cells relative to the total number of cells (the total number of cells was determined using nucleus dye Hoechst). Lipofectamine2000 (Invitrogen) was used as the positive control. […]
experimentalEndpoint: Absolute mRNA transfection efficiency in HEK293 cells (%)
Numeric only. Scale: %

Past entries and their recorded results:
| molecule | numericReadout |
| --- | --- |
| CCCCCCCCCCCNc1nc(NCCCCCCCC)nc(NCCN2CCCC2)n1 [Compound N8N11D3] | 4.2 |
| CCCCCCCCCCCCCCCCCCNc1nc(NCCCCCCCCCCCCC)nc(NCCN(CC)CC)n1 [Compound N13N18D7] | 1.3 |
| CCCCCCCCCCCCCCCCCCSc1nc(NCC2CCN(C)CC2)nc(SCCCCCCCCC)n1 [Compound S9S18D10] | 43.6 |
| CCCCCCCCCCCCCCCSc1nc(NCCN2CCCCC2)nc(SCCCCCCCCCCCCCCC)n1 [Compound S15S15D4] | 1.5 |
| CCCCCCCCCCCNc1nc(NCCCCCCCCC)nc(NCC2CCN(C)CC2)n1 [Compound N9N11D10] | 0.0 |
| CCCCCCCCCCCCCCCNc1nc(NCCCN2CCOCC2)nc(N(CCCCCCCCCCCC)CCCCCCCCCCCC)n1 [N15^2N12D8] | 0.9 |
| CCCCCCCCCCCCN(CCCCCCCCCCCC)c1nc(NCCCCCCC)nc(NCCN2CCCCC2)n1 [N7^2N12D4] | 3.7 |

Next molecule, Absolute mRNA transfection efficiency in HEK293 cells to be filled in.
Given item CCCCCCCCCCCCSc1nc(NCCCN(C)C)nc(SCCCCCCCCCCC)n1 [Compound S11S12D6] , the value recorded as its Absolute mRNA transfection efficiency in HEK293 cells is 21.5

---

Test system: Hela cells
Assay: Transfection of Hela cell line, DNA vectors
Type: cell-based
Conditions: 75 ng plasmid DNA, GFP cells / total cells
Mark 1 for reported Absolute DNA transfection efficiency in Hela cells of 10% or greater; mark 0 for anything smaller.

| smilesText | assignedClass |
| --- | --- |
| CCCCCCCCCNc1nc(NCCCN2CCN(C)CC2)nc(SCCCCCCCCC)n1 | 1 |

(Q) Could you verify whether the entry CCCCCCCCCCCSc1nc(NCCCN(C)C)nc(SCCCCCCC)n1 shows Absolute DNA transfection efficiency in Hela cells of no less than 10%?
(A) 1

(Q) Could you verify whether the entry CCCCCCCCCNc1nc(NCCN2CCCC2)nc(SCCCCCCCCC)n1 shows Absolute DNA transfection efficiency in Hela cells of no less than 10%?
(A) 1

(Q) Could you verify whether the entry CCCCCCCCCCCCSc1nc(NCC2CCN(C)CC2)nc(SCCCCCCCC)n1 shows Absolute DNA transfection efficiency in Hela cells of no less than 10%?
(A) 1

(Q) Could you verify whether the entry CCCCCCCCCCCSc1nc(NCCCCCCC)nc(NCCN(C)C)n1 shows Absolute DNA transfection efficiency in Hela cells of no less than 10%?
(A) 1

(Q) Could you verify whether the entry CCCCCCCCCCCSc1nc(NCC2CCN(C)CC2)nc(SCCCCCCCC)n1 shows Absolute DNA transfection efficiency in Hela cells of no less than 10%?
(A) 1

(Q) Could you verify whether the entry CCCCCCCCCCCCCCSc1nc(NCCN(CC)CC)nc(SCCCCCCCCC)n1 shows Absolute DNA transfection efficiency in Hela cells of no less than 10%?
(A) 0

(Q) Could you verify whether the entry CCCCCCCCCCCCSc1nc(NCCN2CCCCC2)nc(SCCCCCCCC)n1 shows Absolute DNA transfection efficiency in Hela cells of no less than 10%?
(A) 0

(Q) Could you verify whether the entry CCCCCCCCCCCCCCSc1nc(NCCCN(C)C)nc(SCCCCCCCCC)n1 shows Absolute DNA transfection efficiency in Hela cells of no less than 10%?
(A) 0

(Q) Could you verify whether the entry CCCCCCCCCCCSc1nc(NCCN2CCN(C)CC2)nc(SCCCCCCC)n1 shows Absolute DNA transfection efficiency in Hela cells of no less than 10%?
(A) 1

---

Test system: HEK293 cells
Assay: Preliminary screening as mRNA vectors, EGFP mRNA transfection of HEK293 cells
Format: cell-based
Settings: HEK293 cells, 96-well plates, EGFP mRNA 50 ng per well; percentage of GFP fluorescent cells relative to total number of cells (Hoechst)
Method: Cell line: HEK293 cells (ATCC CRL-1573™) Medium: DMEM supplemented with 10% fetal bovine serum (Invitrogen) Screening: cell transfection on 96-well plates Detection (readout): percentage of the number of GFP fluorescent cells relative to the total number of cells (the total number of cells was determined using nucleus dye Hoechst). Lipofectamine2000 (Invitrogen) was used as the positive control. […]
Listing of entries alongside the reported Absolute mRNA transfection efficiency in HEK293 cells.
Numeric only. Scale: %

| molecule | unitTag | numericReadout |
| --- | --- | --- |
| CCCCCCCCCCCCCCCNc1nc(NCCCCCCCCCCCCCCC)nc(NCCCN2CCOCC2)n1 [Compound N15N15D8] | % | 0.0 |
| CCCCCCCCCCCSc1nc(NCCCN2CCOCC2)nc(SCCCCCCCCCC)n1 [Compound S10S11D8] | % | 8.3 |
| CCCCCCCCCCCCCCCNc1nc(NCCCCCCCC)nc(NCCN(C)C)n1 [Compound N8N15D1] | % | 0.7 |
| CCCCCCCCCCCCNc1nc(NCCCCCCCCCCC)nc(NCCCN(C)C)n1 [Compound N11N12D6] | % | 8.1 |
| CCCCCCCCCCCCCCCCCCSc1nc(NCCCN2CCOCC2)nc(SCCCCCCCCCCCCCCCC)n1 [Compound S16S18D8] | % | 1.9 |

HEK293 cells data for CCCCCCCCCCCCCCCCSc1nc(NCCCN(C)C)nc(SCCCCCCCCC)n1 [Compound S9S16D6] ; its Absolute mRNA transfection efficiency in HEK293 cells: 71.5

HEK293 cells data for CCCCCCCCCCCCCCCCCCNc1nc(NCCCCCCCCCCCC)nc(NCCN2CCN(C)CC2)n1 [Compound N12N18D5] ; its Absolute mRNA transfection efficiency in HEK293 cells: 1.9

HEK293 cells data for CCCCCCCCCCCCCCCCNc1nc(NCCCCCCC)nc(NCCN2CCOCC2)n1 [Compound N7N16D2] ; its Absolute mRNA transfection efficiency in HEK293 cells: 0.1

HEK293 cells data for CCCCCCNc1nc(NCCCCCC)nc(NCCN(C)C)n1 [Compound N6N6D1] ; its Absolute mRNA transfection efficiency in HEK293 cells: 0.0

src = patent US20230123334A1
